The measurements presented in this section are drawn from patent US20200399712A1.

System: HPV-16
Assay: qPCR sensitivity against HPV-HNSCC tumor samples diluted among 10 ng normal human DNA
Conditions: Sample # 14
Property Label: Threshold of tumor cell numbers for HPV-16 detection (tumor cells)
One number for each entry, in tumor cells.

Answered cases to consult:
Molecule	Reading
HR E5L2-4: primer/probe set for junction between E5 and L2, SEQ ID NO: 55-57 (same as SEQ ID NO: 4-6) (nucleic acid, chemistry not given here) DNA 1: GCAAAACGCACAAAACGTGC DNA 2: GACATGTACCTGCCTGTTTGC DNA 3: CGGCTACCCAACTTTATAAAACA	30.0
E6: previously designed (historical) HPV-16 E6 primers and Taqman probe, SEQ ID NO: 7-9, positive control (nucleic acid, Taqman probe, labels not given here) DNA 1: TCAGGACCCACAGGAGCG DNA 2: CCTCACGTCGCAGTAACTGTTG DNA 3: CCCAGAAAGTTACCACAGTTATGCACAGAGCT	6.0

Query :: Which Threshold of tumor cell numbers for HPV-16 detection value belongs to BR E1-4: HPV-16 E1 region primer/probe set, SEQ ID NO: 37-39 (nucleic acid, chemistry not given here) DNA 1: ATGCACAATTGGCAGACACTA DNA 2: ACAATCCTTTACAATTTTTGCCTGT DNA 3: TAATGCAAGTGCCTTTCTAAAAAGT ?
Result :: 6.0
